As shown below, each of these compounds has a reported EC50 value.
# measured.target: 5-HT1D-like receptor (Oryctolagus cuniculus, UniProt P49144)
# Construct: Ring segments of the vein (4-5 mm in length) were cut and the endothelium gently removed; from tissue; host or cells: saphenous vein rings, endothelium removed, male New Zealand White rabbits
# Sequence (P49144 whole entry): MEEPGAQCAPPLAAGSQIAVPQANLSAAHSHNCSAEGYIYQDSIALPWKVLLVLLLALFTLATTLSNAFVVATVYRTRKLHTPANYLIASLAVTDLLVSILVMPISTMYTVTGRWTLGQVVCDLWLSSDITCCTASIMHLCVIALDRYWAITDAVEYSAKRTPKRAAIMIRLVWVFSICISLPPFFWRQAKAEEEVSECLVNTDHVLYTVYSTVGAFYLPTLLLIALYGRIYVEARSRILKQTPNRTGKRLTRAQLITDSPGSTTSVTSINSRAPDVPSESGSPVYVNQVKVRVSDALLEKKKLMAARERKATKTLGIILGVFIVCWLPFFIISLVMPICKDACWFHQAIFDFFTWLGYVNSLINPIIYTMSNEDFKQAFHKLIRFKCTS
# measurement.notes: Agonist assay: contraction of rabbit isolated saphenous vein (5-HT1D-like receptor agonist activity)
# Design: species or system rabbit (New Zealand White)
# stated.conditions: rabbit isolated saphenous vein rings, 37° C., pH 7.4; prazosin, idazoxan and indomethacin 1 μM present; read-out: EC50 (concentration of the compound which causes 50% of the maximum contraction effected by it)
# Description: […]
# output: bare number, implied unit nM

Inquiry: What value of EC50 has been recorded for this entry: Cc1ccc2[nH]cc(C3CCN(C)C3)c2c1 (centres unmarked) [Example 7i]
Reply text: 470

New cases:
Inquiry: What value of EC50 has been recorded for this entry: CCc1ccc2[nH]cc(C3CCN(C)C3)c2c1 (centres unmarked) [Example 11c]
Reply text: 900

Origin of the recorded values: patent US5998462A
